All values here come from ChEMBL document CHEMBL1135073.

Target: NS3 (Hepatitis C virus, UniProt A3EZJ3)
Sequence (A3EZJ3 whole entry): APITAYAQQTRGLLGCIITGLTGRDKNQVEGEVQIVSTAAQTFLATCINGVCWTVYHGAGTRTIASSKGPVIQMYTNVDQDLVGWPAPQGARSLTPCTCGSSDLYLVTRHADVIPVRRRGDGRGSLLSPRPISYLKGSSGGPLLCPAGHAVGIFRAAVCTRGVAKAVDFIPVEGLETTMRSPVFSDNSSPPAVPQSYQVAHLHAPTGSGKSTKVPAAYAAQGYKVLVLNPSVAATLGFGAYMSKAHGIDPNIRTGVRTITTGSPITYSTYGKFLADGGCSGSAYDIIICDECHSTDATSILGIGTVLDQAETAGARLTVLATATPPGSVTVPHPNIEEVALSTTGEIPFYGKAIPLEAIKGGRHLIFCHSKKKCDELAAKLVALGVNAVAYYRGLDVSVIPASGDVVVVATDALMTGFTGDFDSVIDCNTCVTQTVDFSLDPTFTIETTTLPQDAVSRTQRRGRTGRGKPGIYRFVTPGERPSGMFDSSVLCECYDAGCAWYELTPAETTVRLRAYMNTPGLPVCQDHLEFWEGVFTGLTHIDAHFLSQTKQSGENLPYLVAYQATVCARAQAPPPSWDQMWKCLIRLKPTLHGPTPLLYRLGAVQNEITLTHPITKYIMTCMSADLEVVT
pIC50: −log10 of the molar value. *1 amine or outer side, *2 acyl side, *3 side chain or, on linkers, in order; H or OH if unused. Where a SMILES comes first, the peptide text is derived from it. [ ]: non-standard residue; d: D form. The star is where a group is joined. Nleψ(COCO) = CCCC[C@H](N[*:1])C(=O)C(=O)[*:2]; Acetyl(2-naphthyl) = O=C(Cc1ccc2ccccc2c1)*; NH(1S-phenylpropyl) = CC[C@H](N*)c1ccccc1; Phe(2-Me) = Cc1ccccc1C[C@H](N)C(=O)O; NleCONH2 = CCCC[C@H](N*)C(=O)C(N)=O; 3Thi = N[C@@H](Cc1ccsc1)C(=O)O; Phg = N[C@H](C(=O)O)c1ccccc1; Suc = O=C(CCC(=O)[*:2])[*:1]; Tle = CC(C)(C)[C@H](N)C(=O)O; Bn = c1ccc(C*)cc1
Measured attribute: pIC50

[
  {
    "Molecule": "CCCC[C@H](NC(=O)[C@H](CC(C)C)NC(=O)[C@@H](NC(=O)[C@H](Cc1ccccc1C)NC(=O)[C@H](CCC(=O)O)NC(=O)[C@H](CC(=O)O)NC(=O)CCC(=O)O)C(C)(C)C)C(=O)C(=O)N[C@@H](CC)c1ccccc1 (Suc-DE[Phe(2-Me)][Tle]L[Nleψ(COCO)]-{NH(1S-phenylpropyl)})",
    "Target": "NS3 (Hepatitis C virus, UniProt A3EZJ3)",
    "Measured attribute": "pIC50",
    "Meas value": 7.96
  },
  {
    "Molecule": "CCCC[C@H](NC(=O)[C@H](CC(C)C)NC(=O)[C@@H](NC(=O)[C@H](Cc1ccccc1C)NC(=O)[C@H](CCC(=O)O)NC(=O)[C@H](CC(=O)O)NC(=O)CCC(=O)O)c1ccccc1)C(=O)C(N)=O (Suc-DE[Phe(2-Me)][Phg]L-NleCONH2)",
    "Target": "NS3 (Hepatitis C virus, UniProt A3EZJ3)",
    "Measured attribute": "pIC50",
    "Meas value": 7.38
  },
  {
    "Molecule": "CCCC[C@H](NC(=O)[C@H](CC(C)C)NC(=O)[C@@H](NC(=O)[C@H](Cc1ccccc1C)NC(=O)[C@@H](NC(=O)[C@H](CC(=O)O)NC(=O)CCC(=O)O)C(C)C)C(C)(C)C)C(=O)C(N)=O (Suc-DV[Phe(2-Me)][Tle]L-NleCONH2)",
    "Target": "NS3 (Hepatitis C virus, UniProt A3EZJ3)",
    "Measured attribute": "pIC50",
    "Meas value": 7.70
  },
  {
    "Molecule": "CCCC[C@H](NC(=O)[C@H](Cc1ccsc1)NC(=O)[C@@H](NC(=O)[C@H](Cc1ccccc1C)NC(=O)[C@H](CCC(=O)O)NC(=O)[C@H](CC(=O)O)NC(=O)CCC(=O)O)C(C)(C)C)C(=O)C(N)=O (Suc-DE[Phe(2-Me)][Tle][3Thi]-NleCONH2)",
    "Target": "NS3 (Hepatitis C virus, UniProt A3EZJ3)",
    "Measured attribute": "pIC50",
    "Meas value": 6.89
  },
  {
    "Molecule": "CCCC[C@H](NC(=O)[C@H](CC(C)C)NC(=O)[C@@H](NC(=O)[C@H](Cc1ccccc1C)NC(=O)[C@H](CCC(=O)O)NC(=O)[C@H](CC(=O)O)NC(=O)Cc1ccc2ccccc2c1)C(C)(C)C)C(=O)C(N)=O ({Acetyl(2-naphthyl)}-DE[Phe(2-Me)][Tle]L-NleCONH2)",
    "Target": "NS3 (Hepatitis C virus, UniProt A3EZJ3)",
    "Measured attribute": "pIC50",
    "Meas value": 7.05
  },
  {
    "Molecule": "CCCC[C@H](NC(=O)[C@H](CC(C)C)NC(=O)[C@@H](NC(=O)[C@H](Cc1ccccc1C)NC(=O)[C@H](CCC(=O)O)NC(=O)[C@H](Cc1c[nH]c2ccccc12)NC(=O)CCC(=O)O)C(C)(C)C)C(=O)C(N)=O (Suc-WE[Phe(2-Me)][Tle]L-NleCONH2)",
    "Target": "NS3 (Hepatitis C virus, UniProt A3EZJ3)",
    "Measured attribute": "pIC50",
    "Meas value": 7.39
  },
  {
    "Molecule": "CCCC[C@H](NC(=O)[C@H](CC(C)C)NC(=O)[C@@H](NC(=O)[C@H](Cc1ccccc1C)NC(=O)[C@H](COCc1ccccc1)NC(=O)[C@H](CC(=O)O)NC(=O)CCC(=O)O)C(C)(C)C)C(=O)C(N)=O (Suc-DS(Bn)[Phe(2-Me)][Tle]L-NleCONH2)",
    "Target": "NS3 (Hepatitis C virus, UniProt A3EZJ3)",
    "Measured attribute": "pIC50",
    "Meas value": 7.54
  },
  {
    "Molecule": "CCCC[C@H](NC(=O)[C@H](CC(C)C)NC(=O)[C@@H](NC(=O)[C@H](Cc1ccc(OCc2ccccc2)cc1)NC(=O)[C@H](CCC(=O)O)NC(=O)[C@H](CC(=O)O)NC(=O)CCC(=O)O)C(C)(C)C)C(=O)C(N)=O (Suc-DEY(Bn)[Tle]L-NleCONH2)",
    "Target": "NS3 (Hepatitis C virus, UniProt A3EZJ3)",
    "Measured attribute": "pIC50",
    "Meas value": 6.96
  }
]
